target: recombinant human 5-HT4 receptor (Homo sapiens); test: Determination of EC50 values for 5-HT4 receptor (CHO cells, pCRE-Luc reporter); settings: CHO cells, human 5-HT4 receptor, luciferase reporter, 4 hours incubation
Sequence (Q13639 whole entry): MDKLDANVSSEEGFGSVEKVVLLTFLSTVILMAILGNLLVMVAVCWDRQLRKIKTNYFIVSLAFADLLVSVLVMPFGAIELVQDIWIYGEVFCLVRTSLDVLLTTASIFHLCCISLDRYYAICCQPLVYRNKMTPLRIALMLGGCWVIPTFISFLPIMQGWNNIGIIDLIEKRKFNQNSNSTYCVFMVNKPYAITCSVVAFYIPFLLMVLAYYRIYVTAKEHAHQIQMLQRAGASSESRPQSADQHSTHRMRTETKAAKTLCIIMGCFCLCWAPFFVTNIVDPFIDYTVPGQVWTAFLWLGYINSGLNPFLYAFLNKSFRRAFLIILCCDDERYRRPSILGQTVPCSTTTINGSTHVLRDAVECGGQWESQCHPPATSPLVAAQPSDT
property.label: pEC50
FYI, pEC50 means -log10 of a concentration in mol per litre.

Request: I'd like to know its pEC50. The molecule in question is `Nc1c(Cl)cc(C(=O)NCC2CCN(CCF)CC2)c2ncccc12`
Response: 9.39

Request: Next up: `CC(C)(O)CN1CCC(CNC(=O)c2cc(Cl)c(N)c3cccnc23)CC1`
Response: 10.00

* * *

assay: Rodent pharmacokinetic study; type: in vivo, Male wistar rats; settings: plasma; Wistar/Male rat, 3 mg/kg oral vs 1 mg/kg intravenous
A collection of compounds and their measured bioavailability
Record the value in %, omitting the unit from your answer.

Please review the entries below; each comes with its answer.
{"columns": ["compound", "bioavailability, %"],
 "data": [
  ["Nc1c(Cl)cc(C(=O)NCC2CCN(CC3CCOCC3)CC2)c2ncccc12.O=C(O)C(O)C(O)C(=O)O", 37],
  ["Nc1c(Cl)cc(C(=O)NCC2CCN(CC3CCOCC3)CC2)c2ncccc12.O=C(O)/C=C/C(=O)O", 51]
]}

Request: I'd like to know its bioavailability. The compound in question is Nc1c(Cl)cc(C(=O)NCC2C3CN(CC4CCOCC4)CC23)c2ncccc12.O=C(O)C(O)C(O)C(=O)O (stereo not drawn)
Response: 62

* * *

molecular target: recombinant human 5-HT4 receptor (Homo sapiens); construct: expressed in transfected cells; test: Determination of EC50 values for 5-HT4 receptor (CHO cells, pCRE-Luc reporter); format: cell-based; settings: CHO
property.label: Emax (%)
Record the value in %, omitting the unit from your answer.

Please review the entries below; each comes with its answer.
{"columns": ["compound", "unit.abbreviation", "Emax"],
 "data": [
  ["CC(C)N1CC2C(CNC(=O)c3cc(Cl)c(N)c4cccnc34)C2C1 (centres unmarked)", "%", 83],
  ["Nc1c(Cl)cc(C(=O)NCC2CCN(C3CCOCC3)CC2)c2ncccc12", "%", 56],
  ["CC(C)CN1CC2C(CNC(=O)c3cc(Cl)c(N)c4cccnc34)C2C1 (centres unmarked)", "%", 87]
]}

Request: I'd like to know its Emax. The compound in question is `CC(C)(O)CN1CCC(F)(CNC(=O)c2cc(Cl)c(N)c3cccnc23)CC1.O=C(O)C(O)C(O)C(=O)O`
Response: 62

Request: Next up: Nc1c(Cl)cc(C(=O)NCC2CCN(CC3CCOCC3)C2)c2ncccc12 (centres unmarked)
Response: 83

* * *

target: recombinant human 5-HT4 receptor (Homo sapiens); construct: expressed in transfected cells; experiment: Determination of EC50 values for 5-HT4 receptor (CHO cells, pCRE-Luc reporter); format: cell-based; details: CHO cells, human 5-HT4 receptor, luciferase reporter, 4 hours incubation
pEC50: −log10 of the molar value.
Quick rule for you: pEC50 at 9 or higher means yes, lower means no.

{"columns": ["line.notation", "test.target", "class.assignment"],
 "data": [
  ["Nc1c(F)cc(C(=O)NCC2CCN(CC3(O)CCOCC3)CC2)c2ncccc12", "recombinant human 5-HT4 receptor (Homo sapiens)", "yes"]
]}

Request: For this compound, is measured pEC50 9 or higher? `CC(C)(O)CN1CCC(F)(CNC(=O)c2cc(Cl)c(N)c3cccnc23)CC1`
Response: no

Request: Next up: `CC(C)(O)CN1CCC(CNC(=O)c2cc(F)c(N)c3cccnc23)CC1`
Response: yes

* * *

biological target: recombinant human 5-HT4 receptor (Homo sapiens); assay: Determination of EC50 values for 5-HT4 receptor (CHO cells, pCRE-Luc reporter); settings: CHO cells, human 5-HT4 receptor, luciferase reporter, 4 hours incubation
property.label: pEC50
FYI, pEC50 means -log10 of a concentration in mol per litre.

Please review the entries below; each comes with its answer.
{"columns": ["molecule", "test.target", "experimental.result"],
 "data": [
  ["CC(C)N1CC2C(CNC(=O)c3cc(Cl)c(N)c4cccnc34)C2C1 (centres unmarked) [Example 10]", "recombinant human 5-HT4 receptor (Homo sapiens)", 8.82],
  ["Nc1c(Cl)cc(C(=O)NCC2(O)CCN(CC3CCOCC3)CC2)c2ncccc12 [Example 22]", "recombinant human 5-HT4 receptor (Homo sapiens)", 9.70],
  ["Nc1c(Cl)cc(C(=O)NCC2C3CN(CCCO)CC23)c2ncccc12 (centres unmarked) [Example 51]", "recombinant human 5-HT4 receptor (Homo sapiens)", 8.85],
  ["COC(=O)C(C)(C)CN1CCC(CNC(=O)c2cc(Cl)c(N)c3cccnc23)CC1 [Example 31]", "recombinant human 5-HT4 receptor (Homo sapiens)", 9.52]
]}

Request: I'd like to know its pEC50. The molecule in question is Nc1c(Cl)cc(C(=O)NCC2CCN(CC3CCOCC3)CC2)c2ncccc12.O=C(O)C(O)C(O)C(=O)O [Example 13]
Response: 10.05

Request: Next up: Nc1c(Cl)cc(C(=O)NCC2(O)CCN(CC3(O)CCOCC3)CC2)c2ncccc12 [Example 29]
Response: 10.00

Request: Next up: Nc1c(Cl)cc(C(=O)NCC2(F)CCN(CC3CCOCC3)CC2)c2ncccc12 [Example 20]
Response: 8.96

Request: Next up: Nc1c(Cl)cc(C(=O)NCC2CCN(C3CCOCC3)CC2)c2ncccc12 [Example 6]
Response: 10.00

Request: Next up: COCC(C)(C)CN1CCC(CNC(=O)c2cc(Cl)c(N)c3cccnc23)CC1 [Example 55]
Response: 10.05

Request: Next up: Nc1c(Cl)cc(C(=O)NCC2CCN(CC3(F)CCOCC3)CC2)c2ncccc12 [Example 30]
Response: 10.00

Request: Next up: Nc1c(Cl)cc(C(=O)NCC2C3CN(CC4CC4)CC23)c2ncccc12 (centres unmarked) [Example 9]
Response: 9.10

Request: Next up: CC(C)(O)CN1CCC(F)(CNC(=O)c2cc(F)c(N)c3cccnc23)CC1.O=C(O)C(O)C(O)C(=O)O [Example 43]
Response: 8.54

Request: Next up: CC(C)(CN1CCC(CNC(=O)c2cc(Cl)c(N)c3cccnc23)CC1)C(=O)O [Example 32]
Response: 8.92

Request: Next up: COCCCN1CC2C(CNC(=O)c3cc(Cl)c(N)c4cccnc34)C2C1 (centres unmarked) [Example 54]
Response: 9.15

Request: Next up: Nc1c(Cl)cc(C(=O)NCC2C3CN(CCO)CC23)c2ncccc12 (centres unmarked) [Example 50]
Response: 8.77

Request: Next up: CC(C)CN1CC2C(CNC(=O)c3cc(Cl)c(N)c4cccnc34)C2C1 (centres unmarked) [Example 8]
Response: 9.15

Request: Next up: Nc1c(Cl)cc(C(=O)NCC2(F)CCN(CC3(O)CCOCC3)CC2)c2ncccc12.O=C(O)C(O)C(O)C(=O)O [Example 27]
Response: 9.22
